Recorded measurements of Kd, one per entry
- TARGET_UNDER_TEST: T1, extracellular domain polypeptide of a recombinant B7-H3 variant 2 antigen (R&D Systems, Inc., #2318-B3-050/CF) (human, UniProt Q5ZPR3 29-466)
- T1 construct: Bought recombinant protein; also called recombinant B7-H3 antigen; B7-H3 antigen
- T1 sequence: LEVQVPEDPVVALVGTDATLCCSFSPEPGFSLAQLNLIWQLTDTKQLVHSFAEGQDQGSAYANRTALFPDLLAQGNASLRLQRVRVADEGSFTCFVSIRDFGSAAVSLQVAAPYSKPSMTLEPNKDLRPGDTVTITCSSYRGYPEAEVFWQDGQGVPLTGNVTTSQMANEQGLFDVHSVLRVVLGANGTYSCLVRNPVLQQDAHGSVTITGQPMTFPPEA
- PROTOCOL: SPR (Biacore), antibody captured on anti-human IgG, B7-H3 variant 2 extracellular domain as analyte

BINDER	Kd / nM
humanized M30 antibody M30-H4-L3 (antibody, human IgG1, kappa, V domains shown, Human IgG1/kappa) VH: EVQLVQSGAEVKKPGSSVKVSCKASGYTFTNYVMHWVKQAPGQGLEWIGYINPYNDDVKYNEKFKGKATQTSDKSTSTAYMELSSLRSEDTAVYYCARWGYYGSPLYYFDYWGQGTLVTVSS VL: QIVLSQSPATLSLSPGERATLTCRASSRLIYMHWYQQKPGSAPKLWIYATSNLASGIPARFSGSGSGTSYTLTISRLEPEDFAVYYCQQWNSNPPTFGQGTKVEIKR	160
humanized M30 antibody M30-H1-L5 (antibody, human IgG1, kappa, V domains shown, Human IgG1/kappa) VH: QVQLVQSGAEVKKPGSSVKVSCKASGYTFTNYVMHWVRQAPGQGLEWMGYINPYNDDVKYNEKFKGRVTITADESTSTAYMELSSLRSEDTAVYYCARWGYYGSPLYYFDYWGQGTLVTVSS VL: QIVLSQSPATLSLSPGERATLTCRASSRLIYMHWYQQKPGSAPKPWIYATSNLASGIPARFSGSGSGTSYTLTISRLEPEDFAVYYCQQWNSNPPTFGQGTKVEIKR	1.9

Recorded values, source patent US20130078234A1.
